- System: Human osteosarcoma U20S cells
- experiment.description: Assay to measure lysosome and autolysosome formation (acidic vesicle formation, LysoView/LysoTracker staining)
- Format: cell-based
- condition.info: Homo sapiens; U2OS cells, concentration of 0.8 μM; read-out: Activity (percentage increase in acidic vesicle formation over the DMSO-treated control), Table 2
Structures can show the parent of a compound that is named as a salt.
property.label: activation at 0.8 µM

response.value for CCCN(C(=O)c1csc(-c2cnn(-c3cccc(OC)c3)c2)n1)[C@@H]1CCNC1 (field: activation at 0.8 µM) = 10 to 30%

Sample COc1cccc(-n2cc(-c3nc(C(=O)N4CCC[C@@H]4CN)cs3)cn2)c1 ; activation at 0.8 µM observed: 50 to 100%

For record O=C(NCC1CCNC1)c1csc(-c2cnn(-c3ccccc3)c2)n1 (stereo not drawn) the listed activation at 0.8 µM is 30 to 50%

Lab book: activation at 0.8 µM of CCCN(C(=O)c1csc(-c2cnn(-c3cccc(OC(F)(F)F)c3)c2)n1)[C@@H]1CCNC1 noted as 30 to 50%

Lookup result for CCCN(C(=O)c1csc(-c2cnn(-c3ccccc3C(F)(F)F)c2)n1)[C@@H]1CCNC1 ; measured activation at 0.8 µM: 30 to 50%

compound CCCN(C(=O)c1csc(-c2cnn(-c3ccccc3)c2)c1)[C@@H]1CCNC1 , activation at 0.8 µM observed: 10 to 30%

activation at 0.8 µM reported for this compound CCCN(C(=O)c1csc(-c2cnn(-c3ccccc3F)c2)n1)[C@@H]1CCNC1 : 30 to 50%

In plain terms, CCCN(C(=O)c1ccc(-c2cnn(-c3ccccc3)c2)[nH]1)C1CCNC1 (stereo not drawn) has a documented activation at 0.8 µM of 50 to 100%

The recorded activation at 0.8 µM for entry CCCN(C(=O)c1csc(-c2cnn(-c3cccc(F)c3)c2)n1)[C@@H]1CCNC1 equals 10 to 30%

Just so you know, measured activation at 0.8 µM for CC(C)N(C(=O)c1csc(-c2cnn(-c3cccnn3)c2)n1)C1CCNCC1 came out at 30 to 50%

Entry CCCN(C(=O)c1ccc(-c2cnn(-c3ccccc3)c2)[nH]1)[C@@H]1CCNC1 , activation at 0.8 µM reported as > 100%

Entry CCCN(C(=O)c1ccc(-c2cnn(-c3ccccc3)c2)o1)[C@@H]1CCNC1 — recorded activation at 0.8 µM = 50 to 100%

// sample CC(C)N(C(=O)c1csc(-c2cnn(-c3ccccc3)c2)n1)C1CCNCC1 [Compound 163, hydrochloride] , its activation at 0.8 µM was 10 to 30%

So for Cc1ccccc1-n1cc(-c2nc(C(=O)N(C(C)C)C3CCNCC3)cs2)cn1 , the logged activation at 0.8 µM turned out to be 10 to 30%

Record N[C@H]1CCCN(C(=O)c2csc(-c3cnn(-c4ccccc4)c3)n2)C1 . Reported activation at 0.8 µM: 10 to 30%

Short answer for CCCN(C(=O)c1csc(-c2ccc(-c3ccccc3)s2)n1)C1CCNC1 (stereo not drawn) : activation at 0.8 µM was > 100%

For this compound ( CC(C)N(C(=O)c1csc(-c2cnn(-c3cccnc3)c2)n1)C1CCNCC1 ), measured activation at 0.8 µM is 30 to 50%

activation at 0.8 µM measured on CC(C)N(C(=O)c1csc(-c2cnn(-c3ccccc3)c2)n1)[C@H]1[C@@H]2CNC[C@@H]21 = > 100%

Sample Cc1ccc(-n2cc(-c3nc(C(=O)N(C(C)C)C4CCNCC4)cs3)cn2)cc1 ; activation at 0.8 µM observed: 30 to 50%

The recorded activation at 0.8 µM for CCCN(C(=O)c1cc(-c2cnn(-c3ccccc3)c2)c[nH]1)C1CCNC1 (stereo not drawn) is > 100%

Short answer for CCCN(C(=O)c1ccc(-c2cnn(-c3ccccc3)c2)o1)C1CCNC1 (stereo not drawn) : activation at 0.8 µM was 10 to 30%

Lab note: CCCN(C(=O)c1csc(-c2cnn(-c3ccccc3)c2)c1)C1CCNC1 (stereo not drawn) gave activation at 0.8 µM of 10 to 30%

Data point: O=C(c1csc(-c2cnn(-c3ccccc3)c2)n1)N1C[C@H]2C[C@@H]1CN2 ; activation at 0.8 µM = 50 to 100%

// field: activation at 0.8 µM; key: CC(C)N(C(=O)c1csc(-c2cnn(-c3ccccc3)c2)n1)[C@H]1CCNC1 ; value = 50 to 100%

The compound listed as O=C(NCC1CCNCC1)c1ccc(-c2cnn(-c3ccccc3)c2)o1 shows activation at 0.8 µM equal to 30 to 50%

# compound CCCN(C(=O)c1csc(-c2cnn(-c3ccccc3)c2)n1)[C@@H]1CCNC1 [Compound 171, hydrochloride] ; its activation at 0.8 µM = 10 to 30%

activation at 0.8 µM for NCCNC(=O)c1csc(-c2cnn(-c3ccccc3)c2)n1 is 10 to 30%

The value of activation at 0.8 µM measured for the compound CCCN(C(=O)c1csc(-c2cnn(-c3ccc(F)cc3)c2)n1)[C@@H]1CCNC1 turned out to be 10 to 30%

For reference, reported activation at 0.8 µM for Cc1ccccc1-n1cc(-c2nc(C(=O)N3CCC[C@@H]3CN)cs2)cn1 stands at 30 to 50%

Recorded result, CCCN(C(=O)c1csc(-c2cnn(-c3cccc(Cl)c3)c2)n1)[C@H]1CCNC1 , activation at 0.8 µM: 10 to 30%

Summary for this compound, CCCN(C(=O)c1csc(-c2cnn(-c3ccccc3)c2)n1)[C@H]1CCNC1 [Compound 170, hydrochloride] : activation at 0.8 µM is 10 to 30%

Reported activation at 0.8 µM ( CC(C)N(C(=O)c1ccc(-c2cnn(-c3ccccc3)c2)[nH]1)C1CCNCC1 ) = 30 to 50%

According to the records, this compound CCCN(C(=O)c1csc(-c2cnn(-c3ccccn3)c2)n1)[C@@H]1CCNC1 displays activation at 0.8 µM of 10 to 30%
